Listed below are compounds with pIC50 for UniProtKB Q9Y233, each taken from published literature.
pIC50: −log10 of the molar value.

{"columns": ["molecular_string", "qualifier_sign", "pIC50"],
 "data": [
  ["COc1cn(-c2cnn(CC3CC3)c2)nc(-c2cc(C)nn2-c2ccccc2)c1=O", "≥", 8.00],
  ["Cc1nc2cccnc2n2c(-c3cc(C(C)(C)O)ccc3Cl)nnc12", "=", 5.06],
  ["Cc1cnc2c(C(=O)NC3(c4ccc5ccccc5n4)CCOCC3)cnn2c1", "<", 5.00],
  ["COc1ccc(Cn2nc(C#Cc3cnc4ccc(Cl)cc4n3)nc2N2CCCC2)cc1", "=", 7.75],
  ["Cc1cnc(Nc2cncnc2)c(C(=O)Nc2cc(-c3ccccn3)nn2C)n1", "=", 7.68],
  ["Cn1c(=O)n([C@H]2C[C@H](Nc3nc4ccccc4s3)C2)c2nccnc21", "=", 9.01],
  ["Cc1nc2c(N(C)C)nc(CCc3nc(N4CCCC4)nn3C)nn2c1C", "=", 8.70],
  ["CN(C(=O)c1nn(C)cc1NC(=O)c1nc(C2CC2)ccc1Nc1cncnc1)C1CCCC1", "=", 8.06],
  ["CNC(=O)c1c(NC(=O)c2nc(C(C)C)ncc2Nc2cncc(F)c2)cnn1C", "=", 7.62]
]}

---

Listed below are compounds with IC50 for human PDE10A2 (Homo sapiens (Human)), each taken from published literature.

{"columns": ["compound", "qualifier_sign", "IC50 [nM]"],
 "data": [
  ["CNC(=O)c1c(NC(=O)c2nc(C(C)C)cnc2Nc2cncnc2)cnn1C", "=", 1.4],
  ["CC1(C)C(=O)N([C@H]2C[C@H](Nc3ncc(C(F)(F)F)cn3)C2)c2ncccc21", "=", 180],
  ["Cc1ccc2nc(C)c3nnc(-c4cccc(OCCCO)c4)n3c2n1", "=", 850],
  ["Cc1ncc(C)c(-c2cnn(C)c2C(=O)Nc2cc3nc(N4CCCC4)nn3cc2F)n1", "<", 5],
  ["Cn1ncc(-c2ccc(C#N)cn2)c1C(=O)Nc1cc2nc(-c3ccccc3)nn2cc1F", "<", 5],
  ["CNC(=O)c1c(NC(=O)c2nc(C3CC3)ccc2Nc2cncnc2)cnn1C", "=", 14.4],
  ["FC(F)(F)Cn1cc(-c2ccncc2)c(-c2ccc(OCc3nc4ccccn4n3)cc2)n1", "=", 0.56],
  ["COc1nc2cccnc2n1C1CN(c2nccc(-c3ccc(C)nc3)n2)C1", "=", 2.84],
  ["Cn1nc(N2CCCC2)nc1CCc1ccc2nc3c(n2n1)CCC3", "=", 41],
  ["Cn1ncc(NC(=O)c2nc(C3CC3)cnc2Nc2cncnc2)c1C(=O)NCC1CCCO1 (centres unmarked)", "=", 4],
  ["Cn1ncc(NC(=O)c2nc(C3CC3)cnc2Nc2cncnc2)c1C(=O)N1CCCCC1", "=", 32.9],
  ["CC1(C)C(=O)N([C@H]2C[C@H](Nc3ncc4ccc(F)cc4n3)C2)c2nccnc21", "=", 18.4],
  ["Cc1ncccc1-c1cccc2c1C(=O)N(CCc1cn3ccccc3n1)C2", "<", 100],
  ["Cc1nc2cc(Cl)ccc2nc1C#Cc1nc(N2CCCC2)nn1C", "=", 10.7],
  ["Cc1ncc(F)c(-c2cnn(C)c2C(=O)Nc2cc3nc(-c4ccccc4)nn3cc2F)n1", "<", 5],
  ["O=C(NC1CC1)c1ccncc1NC(=O)c1nc(C2CC2)ccc1Nc1cncnc1", "=", 2.1],
  ["Cn1cc(-c2ccncc2)c(-c2ccc(OCc3nc4ccccc4n3C)cc2)n1", "=", 0.56],
  ["Cc1cc(C)n2cc(/C=C/c3nc(-c4cscn4)cn3C)nc2n1", "=", 180],
  ["Cc1csc(-c2cnn(C)c2C(=O)NC2CCn3cc(-c4ccccc4)nc3C2)n1 (centres unmarked)", "<", 5],
  ["Cc1cccc(-c2cnn(C)c2C(=O)Nc2cc3nc(-c4ccccc4)nn3cc2F)n1", "<", 5],
  ["COc1nc2cccnc2n1C1CN(c2nc3ccccc3s2)C1", "=", 1.35],
  ["Cc1cccc2nc(CCc3nc(-c4cccs4)cn3C[C@@H](O)CN(C)CCC#N)nn12", "=", 10000],
  ["Cn1cc(NC(=O)c2nc(C3CC3)ccc2Nc2cncnc2)c(C(=O)N2CCOCC2)n1", "=", 11.4],
  ["CC1(C)C(=O)N([C@H]2C[C@H](Nc3ncc4ccccc4n3)C2)c2ncccc21", "=", 1120],
  ["Cc1ncc(C)n2nc(CCc3nc(N4CCC(O)C4)nn3C)nc12 (centres unmarked)", "=", 131],
  ["Cn1c(CCN2Cc3cccc(N4CCOCC4)c3C2=O)nc2ccccc21", "<", 100],
  ["CC1CCC(F)(F)CC1c1nnc2c(N)nccn12 (centres unmarked)", "=", 18600],
  ["COc1ccc(C)n2nc(/C=C/c3cc(Cl)c4cccc(F)c4n3)nc12", "=", 270],
  ["Cc1nc2cccnc2n2c(-c3cc(OCC4(O)CCC4)ccc3F)nnc12", "=", 2830],
  ["Cc1cccc2nc(CCc3nc(-c4cccs4)cn3C[C@@H](O)CN(C)CCO)nn12", "=", 16],
  ["Cn1ncc(C(=O)N2CCOCC2)c1C(=O)Nc1ccc2nc(N3CCCC3)nn2c1", "=", 2.5],
  ["COc1cc2ncnc(N3CCOC(c4ccc(C(F)(F)F)cc4)C3)c2cc1OC (centres unmarked)", "=", 660],
  ["Cc1c(Cl)cc(OC(F)F)c2nc(CCc3nc(N4CCCC4)nn3C)nn12", "=", 0.23],
  ["Cn1cc(NC(=O)c2nc(C3CC3)ccc2Nc2cncnc2)c(C(=O)N2CCC(C)(C)C2)n1", "=", 7.3]
]}
